Each entry below lists one item and its recorded Ki value.
# test.system: T1, PSD-95 PDZ3 (aa 309–401) (UniProt P78352 309-401)
# T1 construct: postsynaptic density protein 95 (PSD-95), PDZ3, aa 309–401
# T1 sequence (P78352 309-401): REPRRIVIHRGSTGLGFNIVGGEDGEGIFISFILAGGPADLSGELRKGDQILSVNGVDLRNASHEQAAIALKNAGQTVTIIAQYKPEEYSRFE
# assay.overview: fluorescence polarisation; competition: 25 nM Cy5-labeled probe and a constant concentration of PDZ protein corresponding to the K d of the probe, twofold dilution series of unlabeled peptide (typically 1–512 µM); 10 mM HEPES pH 7.4, 150 mM NaCl, 1% BSA; room temperature; K i calculated from the IC50
# run.parameters: both partners purified
Ends that are not written are not given here.

Just so you know, measured Ki for RNCSTNDSLL-OH (not fully specified) [β2-adrenergic receptor (β2AR) C-tail peptide, human] came out at > 1000 µM

// sample RDYKQSSSTL-OH (not fully specified) [metabotropic glutamate receptor mGlu1(a) C-tail peptide, human] , its Ki was > 1000 µM

# Ki of KYVSYNNLVI-OH (not fully specified) [metabotropic glutamate receptor mGlu7(a) C-tail peptide, human] = > 1000 µM

Origin of the recorded values: paper PMC3653948
